# TEST_SUMMARY: Rat dose proportionality study (oral)
# CONDITION_LABEL: male, Sprague-Dawley, plasma, 10 mg/kg
RECORDED_ENDPOINT: AUC (µM·h)
The figure you give is taken to be in µM·h; do not add the unit.

Data request: For the compound COc1cccc2c1nc(C(F)F)n2-c1nc(N2CCOCC2)nc(N2CCN(S(=O)(=O)CCN(C)C)CC2)n1 , give its measured AUC value.
Data returned: 0.417

* * *

List of remaining activity at 1 µM values.
# SYSTEM_UNDER_TEST: panel of 442 kinases (Homo sapiens)
# Construct: purchased Ambit Biosciences (scanMAXX KINOMEscan)
# TEST_SUMMARY: biochemical
# Assay type: binding
# CONDITION_LABEL: kinase PIM1; 1 µM; read-out: % of control at 1 µM

See these solved cases before continuing.
- COMPOUND_STRUCTURE: "Cn1c(=O)n(-c2ccc(C(C)(C)C#N)cc2)c2c3cc(-c4cnc5ccccc5c4)ccc3ncc21"
  SYSTEM_UNDER_TEST: "panel of 442 kinases (Homo sapiens)"
  remaining activity at 1 µM: "100%"
- COMPOUND_STRUCTURE: "FC(F)c1nc2ccccc2n1-c1nc(N2CCOCC2)nc(N2CCOCC2)n1"
  SYSTEM_UNDER_TEST: "panel of 442 kinases (Homo sapiens)"
  remaining activity at 1 µM: "100%"
- COMPOUND_STRUCTURE: "COc1ncc(-c2ccc3nccc(-c4ccnnc4)c3c2)cc1NS(=O)(=O)c1ccc(F)cc1F"
  SYSTEM_UNDER_TEST: "panel of 442 kinases (Homo sapiens)"
  remaining activity at 1 µM: "100%"

Please find the next molecule below.
Data request: Fill in remaining activity at 1 µM for record Nc1cc(C(F)(F)F)c(-c2cc(N3CCOCC3)nc(N3CCOCC3)n2)cn1
Data returned: 87%

* * *

# SYSTEM_UNDER_TEST: panel of 442 kinases (Homo sapiens, UniProt O00506)
# Construct: purchased Ambit Biosciences (scanMAXX KINOMEscan)
# Sequence (O00506 whole entry): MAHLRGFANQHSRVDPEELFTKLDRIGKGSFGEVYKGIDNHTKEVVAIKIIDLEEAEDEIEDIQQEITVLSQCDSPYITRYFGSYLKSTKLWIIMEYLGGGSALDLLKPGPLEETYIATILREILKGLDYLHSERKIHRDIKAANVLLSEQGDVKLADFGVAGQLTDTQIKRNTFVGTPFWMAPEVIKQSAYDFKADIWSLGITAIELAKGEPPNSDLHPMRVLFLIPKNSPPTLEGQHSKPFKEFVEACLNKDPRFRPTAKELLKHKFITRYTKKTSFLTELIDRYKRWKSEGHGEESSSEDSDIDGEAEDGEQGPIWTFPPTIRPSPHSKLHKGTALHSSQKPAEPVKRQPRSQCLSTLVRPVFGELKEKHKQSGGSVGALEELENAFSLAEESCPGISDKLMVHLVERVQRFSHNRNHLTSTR
# TEST_SUMMARY: biochemical
# Format: binding
# CONDITION_LABEL: kinase YSK1; 1 µM; read-out: YSK1 (% of control at 1 µM)
Catalogue of compounds with associated remaining activity at 1 µM
Include the unit after the number when you answer.

These solved cases illustrate the format of a correct answer.
- COMPOUND_STRUCTURE: "COc1ncc(-c2ccc3nccc(-c4ccnnc4)c3c2)cc1NS(=O)(=O)c1ccc(F)cc1F"
  remaining activity at 1 µM: "91%"
- COMPOUND_STRUCTURE: "Cn1c(=O)n(-c2ccc(C(C)(C)C#N)cc2)c2c3cc(-c4cnc5ccccc5c4)ccc3ncc21"
  remaining activity at 1 µM: "100%"
- COMPOUND_STRUCTURE: "Nc1cc(C(F)(F)F)c(-c2cc(N3CCOCC3)nc(N3CCOCC3)n2)cn1"
  remaining activity at 1 µM: "100%"

Now let's try a different one.
Data request: State measured remaining activity at 1 µM of the compound FC(F)c1nc2ccccc2n1-c1nc(N2CCOCC2)nc(N2CCOCC2)n1 with panel of 442 kinases (Homo sapiens, UniProt O00506).
Data returned: 83%

* * *

# SYSTEM_UNDER_TEST: panel of 442 kinases (Homo sapiens)
# Construct: purchased Ambit Biosciences (scanMAXX KINOMEscan)
# TEST_SUMMARY: biochemical
# Format: binding
# CONDITION_LABEL: kinase NEK2; 1 µM; read-out: % of control at 1 µM
RECORDED_ENDPOINT: remaining activity at 1 µM (%)
Numeric only. Scale: %

- COMPOUND_STRUCTURE: "Nc1cc(C(F)(F)F)c(-c2cc(N3CCOCC3)nc(N3CCOCC3)n2)cn1"
  remaining activity at 1 µM (%): 84
- COMPOUND_STRUCTURE: "COc1ncc(-c2ccc3nccc(-c4ccnnc4)c3c2)cc1NS(=O)(=O)c1ccc(F)cc1F"
  remaining activity at 1 µM (%): 100
- COMPOUND_STRUCTURE: "Cn1c(=O)n(-c2ccc(C(C)(C)C#N)cc2)c2c3cc(-c4cnc5ccccc5c4)ccc3ncc21"
  remaining activity at 1 µM (%): 88

Data request: Supply reported remaining activity at 1 µM belonging to this molecule: FC(F)c1nc2ccccc2n1-c1nc(N2CCOCC2)nc(N2CCOCC2)n1
Data returned: 87

* * *

# SYSTEM_UNDER_TEST: panel of 442 kinases (Homo sapiens)
# Construct: purchased Ambit Biosciences (scanMAXX KINOMEscan)
# TEST_SUMMARY: biochemical
# Type: binding
# CONDITION_LABEL: CASK; 1 µM; read-out: % of control at 1 µM
RECORDED_ENDPOINT: remaining activity at 1 µM

Observe how each entry below is paired with its result.
- MOLECULE: "COc1ncc(-c2ccc3nccc(-c4ccnnc4)c3c2)cc1NS(=O)(=O)c1ccc(F)cc1F [Omipalisib]"
  SYSTEM_UNDER_TEST: "panel of 442 kinases (Homo sapiens)"
  remaining activity at 1 µM: "75%"
- MOLECULE: "Cn1c(=O)n(-c2ccc(C(C)(C)C#N)cc2)c2c3cc(-c4cnc5ccccc5c4)ccc3ncc21 [Dactolisib]"
  SYSTEM_UNDER_TEST: "panel of 442 kinases (Homo sapiens)"
  remaining activity at 1 µM: "100%"
- MOLECULE: "FC(F)c1nc2ccccc2n1-c1nc(N2CCOCC2)nc(N2CCOCC2)n1 [ZSTK474]"
  SYSTEM_UNDER_TEST: "panel of 442 kinases (Homo sapiens)"
  remaining activity at 1 µM: "87%"

For the next question, use this molecule.
Data request: Provide only the value of recorded remaining activity at 1 µM for Nc1cc(C(F)(F)F)c(-c2cc(N3CCOCC3)nc(N3CCOCC3)n2)cn1 [Buparlisib]
Data returned: 99%

* * *

Entries annotated with measured remaining activity at 1 µM
# SYSTEM_UNDER_TEST: panel of 442 kinases (Homo sapiens)
# Construct: purchased Ambit Biosciences (scanMAXX KINOMEscan)
# TEST_SUMMARY: biochemical
# Type: binding
# CONDITION_LABEL: kinase RIPK2; 1 µM; read-out: RIPK2 (% of control at 1 µM)
Please state the figure in %; there is no need to write the unit.

Sample records with remaining activity at 1 µM:
- COMPOUND_STRUCTURE: "Cn1c(=O)n(-c2ccc(C(C)(C)C#N)cc2)c2c3cc(-c4cnc5ccccc5c4)ccc3ncc21"
  SYSTEM_UNDER_TEST: "panel of 442 kinases (Homo sapiens)"
  OBSERVED: 37
- COMPOUND_STRUCTURE: "COc1ncc(-c2ccc3nccc(-c4ccnnc4)c3c2)cc1NS(=O)(=O)c1ccc(F)cc1F"
  SYSTEM_UNDER_TEST: "panel of 442 kinases (Homo sapiens)"
  OBSERVED: 59
- COMPOUND_STRUCTURE: "FC(F)c1nc2ccccc2n1-c1nc(N2CCOCC2)nc(N2CCOCC2)n1"
  SYSTEM_UNDER_TEST: "panel of 442 kinases (Homo sapiens)"
  OBSERVED: 83

Pending compound:
Data request: Specify measured remaining activity at 1 µM for Nc1cc(C(F)(F)F)c(-c2cc(N3CCOCC3)nc(N3CCOCC3)n2)cn1 .
Data returned: 100

* * *

# SYSTEM_UNDER_TEST: panel of 442 kinases (Homo sapiens, UniProt P19784)
# Construct: purchased Ambit Biosciences (scanMAXX KINOMEscan)
# Sequence (P19784 whole entry): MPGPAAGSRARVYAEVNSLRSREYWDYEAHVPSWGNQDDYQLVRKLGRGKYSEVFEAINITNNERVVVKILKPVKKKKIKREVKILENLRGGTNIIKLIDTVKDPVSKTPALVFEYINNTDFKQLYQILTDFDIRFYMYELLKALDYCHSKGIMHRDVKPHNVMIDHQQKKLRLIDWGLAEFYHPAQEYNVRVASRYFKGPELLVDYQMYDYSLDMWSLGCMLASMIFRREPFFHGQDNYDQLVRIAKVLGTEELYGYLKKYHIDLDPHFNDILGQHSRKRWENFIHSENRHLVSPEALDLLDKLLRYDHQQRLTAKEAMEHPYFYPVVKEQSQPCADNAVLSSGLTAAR
# TEST_SUMMARY: biochemical
# Type: binding
# CONDITION_LABEL: CSNK2A2; 1 µM; read-out: % of control at 1 µM
RECORDED_ENDPOINT: remaining activity at 1 µM
Write the quantity with the unit trailing the number.

Known remaining activity at 1 µM results, listed for orientation:
- MOLECULE: "Cn1c(=O)n(-c2ccc(C(C)(C)C#N)cc2)c2c3cc(-c4cnc5ccccc5c4)ccc3ncc21 [Dactolisib]"
  remaining activity at 1 µM: "99%"
- MOLECULE: "COc1ncc(-c2ccc3nccc(-c4ccnnc4)c3c2)cc1NS(=O)(=O)c1ccc(F)cc1F [Omipalisib]"
  remaining activity at 1 µM: "75%"
- MOLECULE: "Nc1cc(C(F)(F)F)c(-c2cc(N3CCOCC3)nc(N3CCOCC3)n2)cn1 [Buparlisib]"
  remaining activity at 1 µM: "84%"

Proceeding to the next molecule to report its remaining activity at 1 µM.
Data request: For the molecule FC(F)c1nc2ccccc2n1-c1nc(N2CCOCC2)nc(N2CCOCC2)n1 [ZSTK474] , give its measured remaining activity at 1 µM value.
Data returned: 88%

* * *

# SYSTEM_UNDER_TEST: panel of 442 kinases (Homo sapiens, UniProt Q9NSY1)
# Construct: purchased Ambit Biosciences (scanMAXX KINOMEscan)
# Sequence (Q9NSY1 whole entry): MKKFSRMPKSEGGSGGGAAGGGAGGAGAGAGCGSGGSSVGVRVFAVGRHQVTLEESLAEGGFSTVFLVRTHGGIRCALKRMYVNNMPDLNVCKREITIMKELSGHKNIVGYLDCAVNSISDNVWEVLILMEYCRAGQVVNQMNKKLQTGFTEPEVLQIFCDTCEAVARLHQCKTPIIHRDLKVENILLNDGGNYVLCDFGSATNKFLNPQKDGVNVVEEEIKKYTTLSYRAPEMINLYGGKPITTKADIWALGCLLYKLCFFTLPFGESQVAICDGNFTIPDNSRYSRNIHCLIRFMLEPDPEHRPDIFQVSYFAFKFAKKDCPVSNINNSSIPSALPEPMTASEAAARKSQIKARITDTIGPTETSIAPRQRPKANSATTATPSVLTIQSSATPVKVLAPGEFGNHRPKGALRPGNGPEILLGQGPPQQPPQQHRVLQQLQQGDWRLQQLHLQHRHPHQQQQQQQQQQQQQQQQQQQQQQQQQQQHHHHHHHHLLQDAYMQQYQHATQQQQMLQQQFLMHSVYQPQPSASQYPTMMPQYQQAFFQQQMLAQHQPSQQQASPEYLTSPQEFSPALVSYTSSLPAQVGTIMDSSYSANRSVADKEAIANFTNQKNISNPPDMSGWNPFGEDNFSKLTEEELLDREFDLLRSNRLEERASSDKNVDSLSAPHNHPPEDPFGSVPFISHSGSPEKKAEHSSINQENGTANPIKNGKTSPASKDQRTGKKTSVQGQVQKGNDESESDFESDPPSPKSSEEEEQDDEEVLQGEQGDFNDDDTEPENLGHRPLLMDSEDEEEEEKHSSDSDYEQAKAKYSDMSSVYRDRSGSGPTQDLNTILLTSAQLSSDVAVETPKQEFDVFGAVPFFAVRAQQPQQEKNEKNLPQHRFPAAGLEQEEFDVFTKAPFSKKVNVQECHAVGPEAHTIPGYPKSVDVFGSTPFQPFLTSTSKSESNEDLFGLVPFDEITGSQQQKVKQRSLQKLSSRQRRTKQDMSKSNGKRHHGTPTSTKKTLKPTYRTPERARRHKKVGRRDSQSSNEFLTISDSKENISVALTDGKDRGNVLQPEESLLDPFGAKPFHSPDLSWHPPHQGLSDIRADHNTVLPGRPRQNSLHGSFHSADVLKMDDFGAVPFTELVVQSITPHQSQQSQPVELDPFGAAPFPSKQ
# TEST_SUMMARY: biochemical
# Type: binding
# CONDITION_LABEL: BIKE; 1 µM; read-out: % of control at 1 µM
RECORDED_ENDPOINT: remaining activity at 1 µM
Answer as a quantity: numeral, then unit.

Worked cases, answers included:
- COMPOUND_STRUCTURE: "Nc1cc(C(F)(F)F)c(-c2cc(N3CCOCC3)nc(N3CCOCC3)n2)cn1"
  SYSTEM_UNDER_TEST: "panel of 442 kinases (Homo sapiens, UniProt Q9NSY1)"
  remaining activity at 1 µM: "98%"
- COMPOUND_STRUCTURE: "Cn1c(=O)n(-c2ccc(C(C)(C)C#N)cc2)c2c3cc(-c4cnc5ccccc5c4)ccc3ncc21"
  SYSTEM_UNDER_TEST: "panel of 442 kinases (Homo sapiens, UniProt Q9NSY1)"
  remaining activity at 1 µM: "53%"
- COMPOUND_STRUCTURE: "COc1ncc(-c2ccc3nccc(-c4ccnnc4)c3c2)cc1NS(=O)(=O)c1ccc(F)cc1F"
  SYSTEM_UNDER_TEST: "panel of 442 kinases (Homo sapiens, UniProt Q9NSY1)"
  remaining activity at 1 µM: "82%"

Data request: Please list remaining activity at 1 µM recorded for the molecule FC(F)c1nc2ccccc2n1-c1nc(N2CCOCC2)nc(N2CCOCC2)n1
Data returned: 53%

Recorded values, source paper PMC5564600.
